System: HepG2
Test: GSK_TCMDC: Percent inhibition of human HepG2 cell line. Test compounds present at 10uM.
Assay type: functional
In this section we review reported Inhibition values for a set of molecules.
Give your result in % as a bare value.

O=C(Nc1ccc(-c2cccc(-c3nc4ccccc4[nH]3)c2)cc1)Nc1ccsc1	56
COc1ccc(NC(=O)[C@H](CC(C)C)Nc2cc(C)nc(NCCc3cccs3)n2)cc1.O=C(O)C(F)(F)F	5
CS(=O)(=O)c1cccc(-c2ccc3oc(C(N)=O)c(NC(=O)c4cccs4)c3c2)c1	11
COc1ccc(C2C(C(=O)Nc3ccc(C)cc3Br)c3ccccc3C(=O)N2C)cc1 (configuration not stated)	4
c1cncc(CNc2ncc(-c3ccsc3)c(-c3nccs3)n2)c1	0

Problem: Return reported Inhibition; argument: CS(=O)(=O)CCNCc1ccc(-c2ccc3c(Nc4ccc(F)cc4Cl)ccnc3c2)o1
Result: 29

Problem: Return reported Inhibition; argument: O=C(Nc1cccc(-c2csc(-c3nc4ccccc4[nH]3)c2)c1)c1cccnc1
Result: 18

Problem: Return reported Inhibition; argument: Oc1ccccc1N1CCN(c2ccc(-c3nc4ccccc4[nH]3)cn2)CC1
Result: 0

Problem: Return reported Inhibition; argument: CCOc1cc(C(=O)NCCN2CCCCC2)ccc1-c1nc2cc(Cl)ccc2[nH]1
Result: 4

Problem: Return reported Inhibition; argument: CC(C)(C)c1cc(C(=O)N2CCC(c3ccccn3)CC2)n(Cc2ccccc2)n1
Result: 3

Problem: Return reported Inhibition; argument: Cc1c(-c2cccc(NC(=O)C(C)(C)Oc3ccc(Cl)cc3)c2)nc2ncccn12
Result: 0

Problem: Return reported Inhibition; argument: COc1cc(N(Cc2ccc(F)cc2)C(=O)c2ccc(-c3ccccc3)cc2)ccc1OCCN1CCCC1.Cl
Result: 11

Problem: Return reported Inhibition; argument: O=C(NCc1ccc(Cl)cc1)c1ccc(CN2CCCN(Cc3cccc(O)c3)CC2)cc1.O=C(O)C(F)(F)F
Result: 25

Problem: Return reported Inhibition; argument: CCOc1ccc(-c2nonc2NC(=O)CC(C)C)cc1OCC
Result: 0

Problem: Return reported Inhibition; argument: C[C@@H](Oc1cc(-n2cnc3ccc(NC(=O)NC(C)(C)C)cc32)sc1C(N)=O)c1ccccc1Cl
Result: 28

Problem: Return reported Inhibition; argument: COc1cc(Cc2cnc(N)nc2N)cc(OCc2cccc(C(=O)O)c2)c1OC.Cl
Result: 8

###

Tested on: Plasmodium falciparum
Test: GSK_TCMDC: Inhibition of Plasmodium falciparum 3D7 in whole red blood cells, using parasite LDH activity as an index of growth. Test compounds present at 2uM
Type: functional
reportedProperty: Inhibition (%)
Give your result in % as a bare value.

Recorded results for 2 compounds are shown here.
CCCCn1c(-c2ccco2)nc2c(c(=O)c3ccccc3n2C)c1=O	87
COC(=O)c1cccc(NC(=O)NC2CCN(c3ccnc(NCc4ccc(F)cc4)n3)CC2)c1	93

Next item in the queue.
Problem: Return Inhibition measured with Plasmodium falciparum given this compound: Cc1cc(C2CCN(CCCCNC(=O)c3ccc(-c4ccc(C#N)cc4)cc3)CC2)c(C)cc1O
Result: 96

###

Tested on: Plasmodium falciparum
Assay: GSK_TCMDC: Inhibition of Plasmodium falciparum 3D7 in whole red blood cells, using parasite LDH activity as an index of growth. Test compounds present at 2uM
Type: functional
# if measured Inhibition < 90%: class 1  # else: class 0

These solved cases illustrate the format of a correct answer.
CCNc1cc(C(=O)N[C@@H](Cc2ccccc2)[C@H](O)CNC(C)(C)Cc2ccccc2)cc(N2CCCC2=O)c1.O=CO	class 0
COc1ccc(Cn2c(Nc3cccc(C(F)(F)F)c3)nc3cc(C(=O)NC(C)C)cnc32)cc1Cl	class 1
CC(C)(C)Cn1cc(-c2ccc(C(=O)NCCc3ccc(S(C)(=O)=O)cc3)cc2)c(N)n1.CC(C)(C)Cn1ncc(-c2ccc(C(=O)NCCc3ccc(S(C)(=O)=O)cc3)cc2)c1N.O=C(O)C(F)(F)F	class 1
CC(C)Cn1cc(C2CCN(CCN3CCC(CNC(=O)c4ccc(-c5ccc(C(F)(F)F)cc5)cc4)CC3)CC2)c2ccccc21	class 0

Next item in the queue.
Problem: For this molecule, is Inhibition lower than 90%? Cc1cccc(C(=O)Nc2ccnc(N3CCCN(Cc4cccc(O)c4)CC3)c2)c1.O=C(O)C(F)(F)F
Result: class 1

###

In this section we review reported Inhibition values for a set of molecules.
System: Plasmodium falciparum
Assay: GSK_TCMDC: Inhibition of Plasmodium falciparum Dd2 in whole red blood cells, using parasite LDH activity as an index of growth. Test compounds present at 2uM
Type: functional
Give your result in % as a bare value.

Recorded results for 4 molecules are shown here.
CCOc1cc(C(=O)NC2CC(C)(C)NC(C)(C)C2)ccc1-c1cc2cc(Cl)c(Cl)cc2[nH]1	46
COc1cccc(-c2ccc3c(-c4ccc(F)cc4)cnc(N)c3c2)c1.O=CO	70
Cc1noc(-c2ccc(O)cc2O)c1-c1ccc2c(c1)OCCCO2	99
Clc1ccccc1CNc1noc(-c2sccc2Br)n1	93

Problem: Return reported Inhibition; argument: CC(=O)C1=NN(c2ccc(Cl)cc2)C(c2cccs2)N1c1ccccc1 (configuration not stated)
Result: 70

Problem: Return reported Inhibition; argument: COCc1cccc(-c2cc(-c3ccc(S(C)(=O)=O)cc3)cnc2N)c1
Result: 88

Problem: Return reported Inhibition; argument: COc1cc2nccc(Nc3ccc4c(cnn4Cc4cccc(F)c4)c3)c2cc1OC.Cl
Result: 99

Problem: Return reported Inhibition; argument: COc1cc(Nc2nccc(N3CCC(NC(=O)C4COc5ccccc5O4)C3)n2)cc(OC)c1OC (configuration not stated)
Result: 58

Problem: Return reported Inhibition; argument: Cc1cccc2nc(-c3ccc(-c4ccc(CNCc5ccccc5)cc4)s3)[nH]c12.O=C(O)C(F)(F)F
Result: 87

Problem: Return reported Inhibition; argument: O=C(NC1CCN(Cc2ccccc2)CC1)c1csc2nc(-c3ccc(Cl)cc3)cn12
Result: 14

Problem: Return reported Inhibition; argument: O=C(Nc1ccc(Cn2ncc(N3CCCNCC3)c(Cl)c2=O)cc1)Nc1cc(Cl)cc(Cl)c1.O=C(O)C(F)(F)F
Result: 17

Problem: Return reported Inhibition; argument: COc1ccc(N2C(=O)C3C(C2=O)C2(C)c4ccccc4C3(C)c3ccccc32)c([N+](=O)[O-])c1 (configuration not stated)
Result: 54

Problem: Return reported Inhibition; argument: CCCC1N=C(N)N=C(N)N1c1ccc(Cl)cc1.Cl (configuration not stated)
Result: 0

Problem: Return reported Inhibition; argument: COc1ccc2nccc([C@H](O)CN3CCC(NCc4ccc5c(c4C)OCCO5)CC3)c2n1.Cl
Result: 6

Problem: Return reported Inhibition; argument: CN1CCN(c2ncnc3ccc(NC(=O)Nc4ccc(Cl)c(Cl)c4)cc23)CC1
Result: 89

Problem: Return reported Inhibition; argument: COc1cccc2c1CCN(CCN1CCC(NC(=O)c3ccc(-c4cccc(Cl)c4Cl)cc3)CC1)C2
Result: 38

Problem: Return reported Inhibition; argument: c1cncc(CN2CCCN(c3ccc4c(c3)CCN(Cc3ccc(-c5ncc[nH]5)cc3)CC4)CC2)c1
Result: 33

Problem: Return reported Inhibition; argument: Cn1cc(C(=O)Nc2cccc(-c3cccc(-c4nc5ccccc5[nH]4)c3)c2)n(C)c1=O
Result: 60

Problem: Return reported Inhibition; argument: O=[N+]([O-])c1ccc2c(-c3ccccc3)c(-c3ccccc3)n(O)c2c1
Result: 11

Problem: Return reported Inhibition; argument: Cc1cc(C2CCN(CCCCNC(=O)c3ccc(NC(=O)c4ccc(Cl)cc4)cc3)CC2)c(C)cc1OCc1ccccn1.Cl
Result: 65

Problem: Return reported Inhibition; argument: CC[C@H](C)CNC(=O)c1ccnc(-c2ccc(CNC3Cc4ccccc4C3)cc2)c1.O=C(O)C(F)(F)F
Result: 87

Problem: Return reported Inhibition; argument: O=C(O)C(F)(F)F.c1cncc(CCNCc2ccc(-c3cccc(-c4nc5ccccc5[nH]4)c3)cc2)c1
Result: 99

###

Test system: Plasmodium falciparum
Test: GSK_TCMDC: Inhibition of Plasmodium falciparum 3D7 in whole red blood cells, using parasite LDH activity as an index of growth. Test compounds present at 2uM
Format: functional
In this section we review reported Inhibition values for a set of molecules.
Give your result in % as a bare value.

Recorded results for 5 molecules are shown here.
CCCCCC1c2[nH]c3ccccc3c2CCN1C(=O)OCc1ccccc1 (centres undefined)	93
CCNc1cc(C)nc(Nc2ccc(NC(=O)c3ccccc3)cc2)n1	100
Cc1ccc(-c2ccc(Cl)cc2Oc2cnc(N)nc2N)o1	100
CCn1cnc2c(N3CCCC3=O)cc(C(=O)N[C@@H](Cc3ccccc3)[C@H](O)CNC3CCCCC3)cc21	98
CCc1ccccc1N1CCN(CCCC(=O)c2ccc(NC(=O)c3cc(Cl)cc(Cl)c3)cc2)CC1	99

Problem: Return reported Inhibition; argument: CC(C)CCNC(=O)C1Cc2c([nH]c3ccc(Br)cc23)C2(CCN(CCc3ccccc3)CC2)N1 (centres undefined)
Result: 100

Problem: Return reported Inhibition; argument: COCCNc1nc(N2CCC(CNC(=O)c3ccc(-c4ccc(C(=O)N(C)C)cc4C)cc3)CC2)nc2cc(OC)c(OC)cc12
Result: 98

Problem: Return reported Inhibition; argument: O=C(/C=C/c1ccc(Cl)c(Cl)c1)N1CCC(NCc2c[nH]c3ccccc23)CC1
Result: 94

Problem: Return reported Inhibition; argument: COc1cccc(NC(=O)CSc2nc(-c3ccccc3Cl)ns2)c1
Result: 99

Values compiled from ChEMBL document CHEMBL1157539.
